Please provide measured DPX2 Viability @ 25 μM for the entries that follow.
# Tested on: DPX2 cells
# measurement.conditions: human
Answer as a quantity: numeral, then unit.

Examples from the recorded data:
CO[C@H]1/C=C/O[C@@]2(C)Oc3c(C)c(O)c4c(=O)c(c5oc6cc(N7CCN(CCCO[C@@H]8COc9nc([N+](=O)[O-])cn9C8)CC7)cc(C)c6nc-5c4c3C2=O)NC(=O)/C(C)=C\C=C\[C@H](C)[C@H](O)[C@@H](C)[C@@H](O)[C@@H](C)[C@H](OC(C)=O)[C@@H]1C [Compound 29d] ... 101%
CO[C@H]1/C=C/O[C@@]2(C)Oc3c(C)c(O)c4c(=O)c(c5oc6cc(N7CCN(C(=O)c8ccc9occc9c8)CC7)cc(OCc7ccc(CN8CCOCC8)cc7)c6nc-5c4c3C2=O)NC(=O)/C(C)=C\C=C\[C@H](C)[C@H](O)[C@@H](C)[C@@H](O)[C@@H](C)[C@H](OC(C)=O)[C@@H]1C [Compound 17s] ... 86%

Dear colleague, I am looking for the recorded DPX2 Viability @ 25 μM of the following compound: CO[C@H]1/C=C/O[C@@]2(C)Oc3c(C)c(O)c4c(=O)c(c5oc6cc(N7CCN(C(=O)c8ccncc8)CC7)cc(OCc7ccc(CN8CCOCC8)cc7)c6nc-5c4c3C2=O)NC(=O)/C(C)=C\C=C\[C@H](C)[C@H](O)[C@@H](C)[C@@H](O)[C@@H](C)[C@H](OC(C)=O)[C@@H]1C [Compound 17n] 98%
